- measured.on: NS1 RBD H7N9 (Influenza A virus (H7N9), UniProt S4VCY8 1-73)
- measurement.protocol: EMSA
- condition.context: protein: recombinant; tags: N-His thrombin-cleaved; chain copies: 2; label: 5'-32P
experimental.readout: Kd
Answer as a quantity: numeral, then unit.

Q: Entry AWFC01 (dsRNA) RNA 1: GGUAACUGUUACAGUUACC RNA 2: GGUAACUGUUACAGUUACC needs its Kd filled in; supply it.
A: 3.1 nM
